Parameter melting point: see the listing below.
result-type: melting point

| item-smiles | result-type | experimental-value |
| --- | --- | --- |
| CCOC(=O)c1c(N)sc(C#N)c1C | melting point | 200 to 202 °C |
| C#CCOc1cc(CO)cc(OCC#C)c1 | melting point | 79 to 80 °C |
| NC(=O)N(O)CC#CCOc1ccccc1 | melting point | 97 to 99 °C |
| C=CCn1c(C)c(C)c2cnnc(OCc3ccccc3)c21 | melting point | 115 to 116 °C |
| O=C1C(=O)N(C2CCCCC2)C(=O)N1c1ccccc1 | melting point | 133 to 140 °C |
| CCCCCCOc1ccc(-c2ncc(C#N)cn2)cc1 | melting point | 93.5 to 93.8 °C |

---

result-type: melting point

| molecule | experimental-value |
| --- | --- |
| Cc1cc(C)c2cccc(OCc3c(Cl)ccc(S(=O)(=O)N4CCC[C@H]4C(=O)NCCCN(C)C(=O)OC(C)(C)C)c3Cl)c2n1 | 80 °C |
| COc1ccc(C(=O)NCCCSc2nnnn2C)cc1 | 118 to 122 °C |
| Cn1cc(Oc2ccc(Cl)cc2Cl)c(=O)c(-c2cccc(C(F)(F)F)c2)c1 | 129 to 130 °C |
| Cc1ccc2c(Cl)cc(S(=O)(=O)F)c(O)c2n1 | 196 to 198 °C |
| C[C@H](NC(=O)OC(C)(C)C)c1nc2c(C(F)(F)F)cccc2c(=O)o1 | 174 °C |
| O=c1[nH]c(=O)n(C2OC(CO)CC2O)cc1F (centres undefined) | 169 to 171 °C |
| N#Cc1cc(C(=O)NNC(=O)c2occc2-c2ccccc2OCC2CCCCC2)ccc1O | 142 to 143 °C |
| CC(C)NCC(=O)Nc1cccc2c1C(=O)c1c(NC(=O)CNC(C)C)cccc1C2=O | 196 to 197 °C |
| O=C(c1cc2cc(OCCNC[C@H](O)COc3ccccc3Cl)ccc2o1)N1CCCC1 | 89 to 90 °C |

---

result-type: melting point

| molecule | result-type | experimental-value |
| --- | --- | --- |
| CCOC(=O)C(C(=O)OCC)C(N)c1ccc(Cl)cc1C(N)C(C(=O)OCC)C(=O)OCC (stereo unspecified) | melting point | 90 to 92 °C |
| COCCNc1nc(N)nc(-c2cc(Cl)ccc2Cl)n1 | melting point | 195 to 197 °C |
| CC(C)(C(=O)O)c1ccc(Cl)c([N+](=O)[O-])c1 | melting point | 157 °C |
| COc1cc(OC)nc(C(C)c2ccccc2NC(=O)OC(C)(C)C)n1 (stereo unspecified) | melting point | 119 to 121 °C |
| O=C(O)C1Cc2cc3c(-c4ccccc4Cl)noc3c(Cl)c2O1 (stereo unspecified) | melting point | 224 to 225 °C |
| O=C(O)Cc1c(C(=O)O)c2cc(Oc3ccc(C(F)(F)F)cc3)ccc2n1-c1ccccc1 | melting point | 255 to 257 °C |
| CCc1nc(O)c2c(n1)c(C)nn2CC | melting point | 192 to 194 °C |
| COC(=O)C(C)(C)Oc1ccc(C(=O)c2cccs2)cc1 | melting point | 85 °C |
| O=C(CCCCl)c1ccc2c(c1)Cc1cc(C(=O)CCCCl)ccc1S2 | melting point | 115 to 116 °C |
| O=Cc1cccc(OCCn2ncc3ccccc3c2=O)c1 | melting point | 110 to 111 °C |
| CCOC(=O)C(=CC=CN(CC)CCO)S(=O)(=O)c1ccccc1 | melting point | 107 °C |
| CC(C)(C)c1cc(CCC(=O)OC2CC(C)(C)N(OC3CCCCC3)C(C)(C)C2)cc(-n2nc3ccc(Cl)cc3n2)c1O | melting point | 130 to 136 °C |
| O=C1Cc2cc(NC(=O)C(=O)N3CCC(Oc4ccc(Cl)cc4)CC3)ccc2N1 | melting point | 194 to 196 °C |
| CC(C)(C)NC(=NC#N)Nc1cccnc1 | melting point | 205 to 206 °C |
| c1ccc(COc2ccccc2OCCNCCCNc2ncccn2)cc1 | melting point | 90.1 °C |
| CCCc1c(OCCCc2ccc(OC)c(OC)c2)ccc(C(=O)O)c1O | melting point | 104 to 110 °C |
| CN1C(=O)CC[C@]2(C)c3ccc(Oc4ccc5ccccc5n4)cc3CC[C@@H]12 | melting point | 172 to 174 °C |
| Clc1ccc(-c2cc(C3CCN(Cc4ccccc4Cl)CC3)n[nH]2)cc1 | melting point | 137 to 139 °C |
| CN(C)S(=O)(=O)c1cc2c(O)cccc2o1 | melting point | 150 to 153 °C |
| CCCCCCC1CCC(O)C(=O)O1 (stereo unspecified) | melting point | 75.5 to 77 °C |
| CC(Cc1c[nH]c2ccccc12)(NC(=O)OC1C2CC3CC(C2)CC1C3)C(=O)NCCc1nc[nH]n1 (stereo unspecified) | melting point | 124 to 128 °C |

---

# Lookup of reported melting point keyed by entry

| compound | melting point |
| --- | --- |
| ClCCOc1ccc(/C=C/c2nc3ccccc3s2)cc1 | 92 to 94 °C |
| NC(=O)N(O)CCNC(=O)c1cccn1Cc1ccc(Cl)cc1 | 158 to 160 °C |
| CCCc1c(OCc2ccccc2)ccc2c(=O)cc(C(=O)OCC)[nH]c12 | 121 to 122 °C |
| CC1(O)CC(=O)OC(CCc2ccc(OCc3ccccc3)cc2)C1Br (centres undefined) | 155 to 160 °C |
| CC12CCC3C(CCC4CC(=O)CCC43CO[Si](C)(C)C(C)(C)C)C1CCC2=O (centres undefined) | 130 to 132 °C |
| O=C(COc1ccccc1)NC1C(=O)N2C1SCN(O)C2C(=O)OCc1ccccc1 (centres undefined) | 184 to 186 °C |
| CN(C(=O)CCS)c1nnc(-c2cccnc2)s1 | 149 to 151 °C |
| Cc1c(C)c(N2CCN(c3ccc(F)cc3)CC2)c(C)c2c1OC(C)(C)C2 | 175 to 177 °C |
| COc1ccc2c(c1OC)C(=O)O[C@@H]2[C@H]1c2c(c(I)c3c(c2OC)OCO3)CCN1C | 172 to 173 °C |
| Cc1cc2cc(CN3CCCC3)cnc2cc1NC(=O)c1ccc(-c2ccc(F)c(F)c2)cc1 | 220 to 223 °C |
| CC(Oc1ccc2nc(-c3ccccc3OC(N)=O)sc2c1)c1c(F)ccc(Cl)c1Cl (centres undefined) | 210 to 220 °C |
| CC(=O)Nc1ccc(OC(=O)C2CCc3c(c4ccccc4n3C(=O)c3ccccc3)C2)cc1 (centres undefined) | 166 to 168 °C |
| COC(=O)c1cnc(Cl)c2ccccc12 | 53 to 55 °C |
| COc1ccc2[nH]cc(C3=CCC(N4CCN(c5cccc(Cl)n5)CC4)CC3)c2c1 (centres undefined) | 210 to 213 °C |
| CC(C)Cc1cc2cc(O)ccc2c(Oc2ccc(/C=C/C(=O)O)cc2)c1-c1ccccc1 | 126 to 128 °C |
| O=C(c1ccc(-n2ccc(C(F)(F)F)n2)cc1)N1Cc2cccn2Cc2ccccc21 | 166 to 167 °C |
| CCCCC(=O)c1c(-c2ccc3c(Br)c(O)ccc3c2)oc2ccccc12 | 171 to 172 °C |
| CN1C(=O)[C@H](NC(=O)/C=C/c2ccc(Cl)cc2Cl)N=C(c2ccccc2)c2ccccc21 | 137 to 139 °C |
| N#Cc1ccc2oc(CCc3ccc(C(=O)On4nnc5ccccc54)cc3)cc2c1 | 171 to 172 °C |

---

Below, each entry is listed alongside its reported melting point.
result-type: melting point

| compound | result-type | experimental-value |
| --- | --- | --- |
| CC1=NC(NC(=O)Nc2cccc(C)c2)C(=O)N(CC(=O)C(C)(C)C)c2c(C)cccc21 (configuration not stated) | melting point | 180 to 181 °C |
| COc1ccc2c(c1)C(c1ccc(OCCN3CCCCC3)cc1)c1c-2ccc2cc(OC)ccc12 (configuration not stated) | melting point | 162 to 164 °C |
| COc1cc(NC(C)=O)ccc1N1C(=O)C(C)(c2ccccc2Cl)c2cc(Cl)ccc21 (configuration not stated) | melting point | 83 °C |
| CN1CCCCC1CCc1ccccc1NS(C)(=O)=O (configuration not stated) | melting point | 91.5 to 93.5 °C |
| CCCCCCc1ccc(C2CN=C(NC(=O)OC)N2C)cc1 (configuration not stated) | melting point | 115 to 116 °C |
| CC(O)(c1cccc(Cl)c1)c1cc(Cl)ccc1O (configuration not stated) | melting point | 125 °C |
| COC1(c2cc(F)cc(Sc3ccc(C(=NO)c4nccs4)cc3)c2)CCOCC1 | melting point | 153 to 154 °C |
| CC(C)(C)C(=O)Nc1nc(O)c2c(C#C[Si](C)(C)C)c[nH]c2n1 | melting point | > 300 °C |
| COC(=O)c1cc2cc(OC)c(OC)cc2c(C)c1C(=O)OC | melting point | 142 to 144 °C |
| CNC(=O)Cc1cccc(C(=O)c2ccccc2)c1N | melting point | 145 to 146 °C |
| N#Cc1ccc(OC2SCC(O)C(O)C2O)cn1 (configuration not stated) | melting point | 179 to 180 °C |
| CCc1nc2c(N)nc3ccccc3c2n1CC(C)(C)OCCS(C)(=O)=O | melting point | 206 to 209 °C |
| Cn1c(=O)n(Cc2ccccc2)c(=O)c2cc(C(=O)O)ccc21 | melting point | 227 °C |
| CN1C(=O)CCC1CN1C(=O)C2(COc3cc4c(cc32)CCO4)c2ccccc21 (configuration not stated) | melting point | 72 to 76 °C |
| COc1cc2ncnc(NS(=O)(=O)c3ccc(Br)cc3)c2cc1OC | melting point | 241 to 242 °C |
| CC1(C)Cc2ccccc2C1c1cncnc1S (configuration not stated) | melting point | 184 to 186 °C |
| CCCNC(=O)C1(CCCCN2CCC(N3Cc4ccccc4C3=O)CC2)C(c2ccccc2)=Cc2ccccc21 (configuration not stated) | melting point | 156 to 157 °C |
| C[C@H](N=C(C(=O)N[C@@H](C)c1ccccc1)C(C)(C)C)c1ccccc1 | melting point | 96 to 97 °C |
| CCCCCCCCCCC/C=C/c1ccc(C=CC(=O)O)cc1 | melting point | 107 °C |
| CC(=O)CC(=O)N1N=C(c2ccc([N+](=O)[O-])cc2)c2cc3c(cc2CC1C)OCO3 (configuration not stated) | melting point | 169 to 171 °C |
| CCC#CC1(C(F)(F)F)OC(=O)Nc2ccc(OC)cc21 (configuration not stated) | melting point | 161 to 162 °C |
| O=C(Nc1nccs1)c1c([C@@H]2CCCN2)nc2c(C(F)(F)F)cccc2c1O | melting point | 196 °C |
| Nc1ccc(O)c(N)c1 | melting point | 78 °C |
| Clc1ccc(CCC(Cn2ccnc2)Sc2c(Cl)cc(Cl)cc2Cl)cc1 (configuration not stated) | melting point | 132 °C |
| c1ccc(-c2cn3ccccc3n2)cc1 | melting point | 135 to 137 °C |
| CC#CCOc1ccc(S(=O)(=O)NCCC(=O)OC(C)(C)C)cc1 | melting point | 63 to 65 °C |
| COc1cc2ncnc(N3CCC(=O)CC3)c2cc1OC | melting point | 176 to 178 °C |
| O=C(O)CCCCCCCC(=O)c1c(-c2ccc(O)cc2)sc2cc(O)ccc12 | melting point | 154 to 158 °C |
| CC(=O)Nc1ccc(C)c2c1C(=O)CCN2CC#N | melting point | 190 to 193 °C |
| COC(=O)C(C)c1ccc2c(c1)CC(=O)c1ccccc1S2 (configuration not stated) | melting point | 81 to 82 °C |
| Nn1c(=O)c(-c2cccs2)nc2ccccc21 | melting point | 164 °C |
| CCOC(=O)N1CCN(CCCN2C(=O)c3ccccc3C2=O)CC1 | melting point | 77 to 84 °C |
| O=C(O)c1ncc2[nH]c3ccccc3c2n1 | melting point | 187 to 189 °C |
| CCN(CC)C(=O)n1cc(C=O)c(S(=O)(=O)c2cccc(Cl)c2C)n1 | melting point | 95 to 97 °C |
| Cc1cc(OCCNC(=O)C2Cc3ccccc3N2S(=O)(=O)c2ccc(-c3ccccc3C(F)(F)F)cc2)ccc1CC(=O)O (configuration not stated) | melting point | 85 to 95 °C |
| CCC(=Cc1ccccc1)C(=O)O | melting point | 104 to 105 °C |
| N#Cc1ccc2ccc3ccccc3c(=O)c2c1 | melting point | 176 to 177 °C |
| COc1ccc(C2Sc3cccc4cccc(c34)NC(=O)C2O)cc1 (configuration not stated) | melting point | 218 to 219 °C |
| COc1cc(N)c(OCc2ccccc2)cc1OC | melting point | 74 °C |
| COc1ccc(S(=O)(=O)Nc2cccnc2Nc2ccncc2)cc1 | melting point | 172 to 173 °C |
| C[C@H](CSc1nc2ccccc2[nH]1)Nc1nc(Cl)nc2c1ncn2[C@@H]1O[C@H](CO)[C@@H](O)[C@H]1O | melting point | 213 to 215 °C |
| COC1=CC2=C(CN1OC)C1=C(c3cc4c(cc3C1=O)OCO4)C(CCCC(C)O)C2=O (configuration not stated) | melting point | 288 to 290 °C |
